- systemTested: tooth pellicle (thin film derived from salivary glycoproteins, formed in a human mouth) (human)
- testName: ELISA, 20 uM biotinylated peptide on pellicle-coated bovine enamel, streptavidin-HRP, normalized to DenP03; no-peptide control -0.001
Where no end group is shown, it is not given here. The star is where a group is joined. Biotin = O=C1N[C@H]2[C@H](CS[C@H]2CCCCC(=O)*)N1
resultType: O.D.450 (normalized)

Here is how some binders turned out for O.D.450 (normalized).
{"columns": ["binder", "O.D.450 (normalized)"],
 "data": [
  ["SSRPDLGTFPNRTLKMAAHK(Biotin) [DenP11-A]", 0.454],
  ["SSRPTYQGVPSWPAVIDDAIRRK(Biotin) [DenP19-A]", 0.712]
]}

A: SSRPVEPATKNMREARSSTQMRRIK(Biotin) [DenP4-A]
B: SSRPFDGIGLGTATRHQNRK(Biotin) [DenP12-A]
Problem: Record comparison, field O.D.450 (normalized): mark the lower of A and B . Identify your selection by its label.
Solution: B

Cited source: patent US20100247589A1
